assay: chemical genetic growth profiling, strain panel (AID 1159580);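 further: tested at 20 µM; growth read once vehicle control cultures reached saturation at 30 °C; 1 = growth at the plate median or of vehicle wells; lower values mean less growth of the strain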; details: S. cerevisiae deletion strains, growth OD, locus YNL322C, strain KRE1
The whole screen tested about 5,500 compounds, of which about 2,000 (36%) were called active. Another 18% or so got no clear call; they are omitted. No stated cut-off is given here; in the data, active means normalized growth mostly below about 0.91 (no sharp cut-off); inconclusive means no clear call, values can overlap the other calls; inactive means mostly above about 0.92. Some of the results follow.
Give one outcome, nothing more. List: true (1) (active), false (0) (inactive)

COc1cc(NS(=O)(=O)c2ccc(N)cc2)nc(OC)n1	false (0)

Outcome? CC(C)CC(NC(=O)C(Cc1ccccc1)NC(=O)CNC(=O)CNC(=O)C(N)Cc1ccc(O)cc1)C(=O)O (stereo not drawn)
false (0)

Same for "CCOC(=O)c1c(C)cc(O)c(C=O)c1O"
true (1)

Same for "NNC(N)=O"
false (0)

Same for COc1cc2c(cc1OC)C1C(=O)c3c(OC)cc4c(c3OC1CO2)CCC(C)(C)O4 (stereo not drawn)
false (0)

Same for CNCC(O)c1cccc(O)c1 (stereo not drawn)
false (0)
